These measurements were taken from patent US20080160035A1.

Biological target: T1, hIL-4R on cells (STAT6-transfected HEK293, TF1, TF1/A12) (human, UniProt P24394 26-825)
T1 sequence (looked up): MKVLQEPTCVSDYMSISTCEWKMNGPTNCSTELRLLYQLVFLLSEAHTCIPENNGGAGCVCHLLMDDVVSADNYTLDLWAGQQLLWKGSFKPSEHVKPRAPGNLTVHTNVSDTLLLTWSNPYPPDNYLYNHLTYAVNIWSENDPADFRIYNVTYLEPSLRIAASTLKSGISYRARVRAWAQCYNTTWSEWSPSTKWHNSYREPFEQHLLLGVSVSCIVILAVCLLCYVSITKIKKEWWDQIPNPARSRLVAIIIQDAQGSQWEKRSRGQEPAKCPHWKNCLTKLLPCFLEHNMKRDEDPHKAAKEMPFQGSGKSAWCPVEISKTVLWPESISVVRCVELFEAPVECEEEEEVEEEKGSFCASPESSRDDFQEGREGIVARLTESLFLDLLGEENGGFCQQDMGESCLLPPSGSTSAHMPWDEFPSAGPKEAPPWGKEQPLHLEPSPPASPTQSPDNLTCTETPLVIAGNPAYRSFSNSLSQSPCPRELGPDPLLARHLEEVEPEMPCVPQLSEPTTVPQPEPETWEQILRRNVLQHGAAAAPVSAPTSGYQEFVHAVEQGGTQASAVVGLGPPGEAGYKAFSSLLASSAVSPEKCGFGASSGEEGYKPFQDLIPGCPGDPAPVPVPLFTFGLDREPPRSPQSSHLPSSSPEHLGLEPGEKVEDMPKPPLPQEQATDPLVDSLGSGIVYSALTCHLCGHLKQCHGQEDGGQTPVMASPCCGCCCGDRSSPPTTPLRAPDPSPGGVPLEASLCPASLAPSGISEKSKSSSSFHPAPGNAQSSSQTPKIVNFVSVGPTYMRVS
Test: cell-based or functional assay
Please provide measured TF1 Bioassay IC50 (proliferation, 50 pM hIL-4) for the entries that follow.
Numbers only, in nM.

binder: VAB 16G1-1 (antibody, V domains shown, 403/405; 407/409 without saying which was assayed; Apparently tested with mouse constant region (anti-mouse IgG capture/detection)) VH: EVKLAESGGGLVQPGGSLRLSCAASGFTFSSHWMNWVRQAPGKGLEWVANIKQDGSDKYYVDSVKGRFTISRDNAKNSLYLQLNSLIAEDTAVYYCARDRGVRPPRGAFDIWGQGTMVTVSS VL: DIQMTQSPSSVSASVGDRVTITCRASQGISSWLAWYQQKPGKAPKLLIYAASSFQSGVPSRFSGSGSGTDFTLTISSLQPEDFATYFCQQANSFPLTFGGGTTVEIK
recorded.measurement: 0.12

Prompt: Return reported TF1 Bioassay IC50 (proliferation, 50 pM hIL-4); argument: VAK11D4-1 (antibody, V domains shown, Apparently tested with mouse constant region (anti-mouse IgG capture/detection)) VH: QVRLVESGGGVVQPGRSLRLSCVASGFTFRSYGMHWVRQAPGRGLEWVAVISYDGSQTFYVDSVKVRFTISRDNSNNTLYLEMNSLRVDDTAVYFCVKEGRSGSWFDPWGQGTLVAVSS VL: DIHMTQSPSSLSASVGDRVTITCRASQAINNYLAWFQQKPGRTPKSLIFATSSLQSGVPSRFSGSGSGTDFTLTISSLQPEDFATYYCQQYNSHPWTFGQGTKVEIK
Response: 0.2
